details: in isobutanol, 293.15 K
Experimental Readout: solubility (mole fraction)

Enquiry: Which solubility (mole fraction) is reported for this compound? Clc1cccnc1Cl
Return: 0.0836

* * *

details: in n-butyl acetate, 308.15 K
Experimental Readout: solubility (mole fraction)
# answer = number (no unit)

Enquiry: Which solubility (mole fraction) is reported for this compound? Clc1cccnc1Cl
Return: 0.424

* * *

conditions: in methanol, 288.15 K
Experimental Readout: solubility (mole fraction)
Form: value (number only, do not type unit).

Enquiry: Consider the molecule Clc1cccnc1Cl and give its measured solubility (mole fraction).
Return: 0.0362

* * *

conditions: in ethanol, 283.15 K
Experimental Readout: solubility (mole fraction)

Enquiry: Reported solubility (mole fraction) for Clc1cccnc1Cl : what is it?
Return: 0.0418
